B1: DnaJ homolog subfamily C member 5, residues 16 to 77; numbered along this chain, Q9H3Z4 (parent)
chain: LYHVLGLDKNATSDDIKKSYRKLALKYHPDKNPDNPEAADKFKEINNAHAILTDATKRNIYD

Variants of: B1
TEST PROTOCOL: abundance fitness (aPCA) (normalised: wild type 0, dead -1); higher = more abundant; growth selection in yeast, the domain comes from the species named
CONDITION DETAILS: Homo sapiens
Class 1: abundance fitness at least -0.01. Class -1: abundance fitness below -0.01.

State whether the measured abundance fitness reaches -0.01, counting equality as reaching it, for I45K
-1

State whether the measured abundance fitness reaches -0.01, counting equality as reaching it, for T56H
-1

State whether the measured abundance fitness reaches -0.01, counting equality as reaching it, for T53F
-1

State whether the measured abundance fitness reaches -0.01, counting equality as reaching it, for E37H
1

State whether the measured abundance fitness reaches -0.01, counting equality as reaching it, for D34R
-1

State whether the measured abundance fitness reaches -0.01, counting equality as reaching it, for A50S
1

State whether the measured abundance fitness reaches -0.01, counting equality as reaching it, for D30K
1
